All figures here come from patent US20190040447A1.

Target: RNA-dependent RNA polymerase (RdRp) comprised in an influenza viral ribonucleoprotein (RNP) complex (Influenza A virus, UniProt P03428+P03431+P03433)
Assay: Influenza filter RNP transcription/replication assay (HTS screen using the method of the invention)
Assay type: biochemical, Influenza virus (Influenza A/PR/8/34, Influenza B\Lee\40)
Settings: virus lysate containing native vRNP; which assay (transcription or replication) and which strain are not stated
property.name: pIC50
Answer as the number alone; pIC50 is minus log10 of concentration in mol/L.

Fill blank: measured pIC50 of the compound O=C(O)[C@H]1[C@H]2CC[C@H]([C@H]3C[C@H]32)[C@@H]1Nc1nc(-c2n[nH]c3ncc(F)cc23)ncc1F is ____. 9.70
